# System: SF-268
# experimentSummary: NCI tumour cell line growth inhibition, 48 h
The source made the active and inactive calls. Cut-off read from the data, not from the text of the source: active = GI50 up to about 1.1 µM and inactive = higher.
measurementName: GI50

Illustrative cases are given below, each with its answer.
>>> testvalue("O=C1OC(c2ccccc2)=N/C1=C\\c1cccnc1")
"> 100 µM (inactive)"
>>> testvalue("CC1(C)Oc2ccc(Cl)cc2C12CC2")
"16.6 µM (inactive)"
>>> testvalue("Cc1ccc(C(=O)N2CCCCC2)cc1/N=N/N(C)C")
"> 100 µM (inactive)"
>>> testvalue("ON/N=C/c1cc2c(cc1Br)OCO2")
"247 µM (inactive)"

For each of the molecules below, state GI50.
1. CCCCCCCCOP(=O)(O)OP(=O)(O)OCC1OC(n2ccc(N)nc2=O)C(O)C1O (stereo not drawn)
2. C(=C/CCCN1O[C@@H](CCCCCCCCc2cccnc2)[C@H]2CCC[C@H]21)/CCCCCCCCCc1cccnc1

**Result**
1. > 100 µM (inactive)
2. 23.4 µM (inactive)

----------
Hi there, I'd appreciate the recorded GI50 for every entry that follows.
# Test system: UACC-257
# experimentSummary: NCI tumour cell line growth inhibition, 48 h
The source made the active and inactive calls. Cut-off read from the data, not from the text of the source: active = GI50 up to about 1.1 µM and inactive = higher.

Illustrative cases are given below, each with its answer.
>>> testvalue("COC(=O)N/N=c1\\cc(C(=O)Nc2ccc(C)c(C)c2)oc2cc(O)ccc12")
"> 100 µM (inactive)"
>>> testvalue("O=C1Nc2ccccc2/C1=N/Nc1ccccc1[N+](=O)[O-]")
"56.1 µM (inactive)"
>>> testvalue("O=C(c1ccc(F)cc1)c1cccc(C(=O)c2ccc(F)cc2)n1")
"47.4 µM (inactive)"
>>> testvalue("COc1cc(C2C3=C(COC3=O)Oc3cc4c(cc32)OCO4)ccc1OC(C)=O (stereo not given)")
"> 100 µM (inactive)"
>>> testvalue("O=C1CCC2(c3ccccc3)Nc3cc(Cl)ccc3N12 (stereo not given)")
"24 µM (inactive)"

For each of the compounds below, state GI50.
1. COc1cc2c(cc1O)C(Cc1ccc(OCc3ccccc3)c(OCc3ccccc3)c1)N(C(=O)NCCc1ccccc1)CC2 (stereo not given)
2. N/C(=N\O)N/N=C\c1ccccc1O
3. COc1cc2c(cc1C)NC(=O)/C2=C/c1c(Cl)n(C)c2ccccc12
4. Cc1nc(-n2nc(-c3ccccc3)cc2-c2ccccc2)sc1C(=O)/C=C/c1ccccc1
5. C/C1=C\CC[C@@]2(C)O[C@@H]2C[C@@H]2[C@H](C/C(C)=C/CC1)OC(=O)C21CCN=N1 (stereo not given in full)

**Result**
1. > 100 µM (inactive)
2. 16.2 µM (inactive)
3. 11.9 µM (inactive)
4. > 100 µM (inactive)
5. > 75 µM (inactive)

----------
# Test system: T47D
# experimentSummary: NCI tumour cell line growth inhibition, 48 h
Activity calls are given as the source filed them. No stated cut-off is given here; in the data, active = GI50 up to about 1.1 µM and inactive = higher.
measurementName: GI50

Illustrative cases are given below, each with its answer.
>>> testvalue("COc1cc(/N=N/c2cccc(S(N)(=O)=O)c2)c2ccccc2c1N")
"13.2 µM (inactive)"
>>> testvalue("CCOC(=O)c1c(NC(=S)NCc2ccccc2)sc2c1CCN(C)C2")
"41.5 µM (inactive)"
>>> testvalue("O=C1c2ccccc2-c2ccc(N(Cc3ccc(Br)cc3)Cc3ccc(Br)cc3)cc21")
"> 100 µM (inactive)"

**Query** Looking for the measured GI50 of CC(=O)Oc1c(C)c2c(O)c3c1C1=C(OCOC1=C(C)C3=O)/C(C)=C/C(C)(O)C(O)C(C)C(O)C1C(=O)OC(C(C)C1O)C(C)(O)/C=C\C=C(C)C(=O)N2 (centres undefined) , can you help?
**Result** > 100 µM (inactive)

----------
# Test system: SF-539
# experimentSummary: NCI tumour cell line growth inhibition, 48 h
The source made the active and inactive calls. Rule as the data show it: active = GI50 up to about 1.1 µM and inactive = higher.
Log the outcome using a class from Y (active), N (inactive)

>>> category("CC(C)(C)C1CCC2c3c([nH]c4ccccc34)C3C(=O)N(c4ccccc4)C(=O)C3C2C1 (stereo unspecified)")
"N"
>>> category("O=C1Nc2ccccc2/C1=N/Nc1nc(-c2ccc(Cl)c(Cl)c2)cs1")
"N"
>>> category("C[C@@H]1S[C@H](c2ccccc2F)N2Cc3ccccc3N=C12")
"N"
>>> category("CN1C(=O)c2ccccc2NC(=O)C12O[C@@H]2c1cccc(O)c1 (stereo partly specified)")
"N"
>>> category("COc1cc2c(cc1O)C(Cc1ccc(OCc3ccccc3)c(OCc3ccccc3)c1)N(C(=O)NCCc1ccccc1)CC2 (stereo unspecified)")
"N"
>>> category("CCC(=O)Nc1ccc(NCC(=O)Nc2ccc(OC)cc2)cc1")
"N"
>>> category("COc1cc2c(cc1OC)C1(c3ccc(Cl)cc3)ON=C(c3ccccc3)N1CS2 (stereo unspecified)")
"N"
>>> category("O=C1c2ccccc2-c2ccc(N(Cc3ccc(Br)cc3)Cc3ccc(Br)cc3)cc21")
"N"

**Query** Per the assay record, what outcome was assigned to CCN(CC)C(=O)C(C)n1cc(C)c(=O)[nH]c1=O (stereo unspecified) ?
**Result** N

**Query** Per the assay record, what outcome was assigned to "CCOP(=O)(OCC)Oc1c(OC)c2[nH]c(C(=O)OC)cc2c2c(C(=O)O)c[nH]c12" ?
**Result** N

**Query** Per the assay record, what outcome was assigned to COc1ccc(C(c2ccc(OC)cc2)N2C(=O)CCC2C(=O)O)cc1 (stereo unspecified) ?
**Result** N

**Query** Per the assay record, what outcome was assigned to "CN(C)c1ccc(/C=C/c2nc3ccccc3s2)cc1" ?
**Result** N

**Query** Per the assay record, what outcome was assigned to "O=C1C(Br)=CC2(C=C1Br)CCNC1=C2C2=NCCc3c[nH]c(c32)C1=O" ?
**Result** Y

**Query** Per the assay record, what outcome was assigned to "ON/N=C/c1cc2c(cc1Br)OCO2" ?
**Result** N

**Query** Per the assay record, what outcome was assigned to O=C(NC1CCCCCC1)C1C(=O)N(C2CCCCCC2)C(=O)/C1=N\O (stereo unspecified) ?
**Result** N

----------
# Tested on: RXF 393
# experimentSummary: NCI tumour cell line growth inhibition, 48 h
Calls of active or inactive are those of the source. Rule as the data show it: active = GI50 up to about 1.1 µM and inactive = higher.
Log the outcome using a class from active, inactive

Worked examples follow.
>>> category("Brc1ccc2[nH]cc(-c3nc(-c4c[nH]c5ccccc45)cs3)c2c1")
"inactive"
>>> category("C1=C2C3=[N+](CCCC3)CC2Cc2ccsc21 (stereo unspecified)")
"inactive"
>>> category("CC(=O)C1C(=O)C(=O)N(c2ccc([N+](=O)[O-])cc2Cl)C1=O (stereo unspecified)")
"inactive"
>>> category("CC1CCC(=O)NCCCCC(=O)N1 (stereo unspecified)")
"inactive"
>>> category("CCCOC(=O)CNC(=O)OC(C)(C)C")
"inactive"
>>> category("O=C1C=CC2OC(c3ccccc3)C(O)C2O1 (stereo unspecified)")
"inactive"
>>> category("O=C1c2c(O)cccc2C(C2OC(CO)C(O)C(O)C2O)c2cc(CO)cc(O)c21 (stereo unspecified)")
"inactive"
>>> category("O=C(C[n+]1ccccc1)NNC(=O)/C(=C/c1ccc2c(c1)OCO2)NC(=O)c1ccccc1")
"inactive"

**Query** Per the assay record, what outcome was assigned to O=C(O)C(Cc1c[nH]c2ccccc12)N1C(=O)c2ccccc2C1=O (stereo unspecified) ?
**Result** inactive

**Query** Per the assay record, what outcome was assigned to O=P1(C(O)/C=C/c2ccccc2)N(Cc2ccccc2)[C@H](c2ccccc2)[C@@H](c2ccccc2)N1Cc1ccccc1 (stereo partly specified) ?
**Result** inactive

**Query** Per the assay record, what outcome was assigned to "O=C1N[C@@H]2c3c(Br)sc(Br)c3C(=O)[C@@H]2N1" ?
**Result** inactive

**Query** Per the assay record, what outcome was assigned to "CCN(CCCl)CCNc1c2ccccc2nc2ccc(OC)cc12" ?
**Result** active

**Query** Per the assay record, what outcome was assigned to "COc1cc(C(c2c(O)c3ccccc3oc2=O)c2c(O)c3ccccc3oc2=O)ccc1O" ?
**Result** inactive

**Query** Per the assay record, what outcome was assigned to "[N-]=[N+]=Nc1ccccc1-c1ccccc1[N+](=O)[O-]" ?
**Result** inactive

**Query** Per the assay record, what outcome was assigned to "c1ccc(-c2cc(-c3cc(-c4ccccc4)no3)on2)cc1" ?
**Result** inactive

----------
# Tested on: SNB-78
# experimentSummary: NCI tumour cell line growth inhibition, 48 h
Activity calls are given as the source filed them. Rule as the data show it: active = GI50 up to about 1.1 µM and inactive = higher.
Hi there, I'd appreciate the recorded GI50 for every entry that follows.

>>> testvalue("O=C(c1ccc(F)cc1)c1cccc(C(=O)c2ccc(F)cc2)n1")
"17.7 µM (inactive)"
>>> testvalue("CN1CCc2c1nc(-c1ccccc1)c1c2N(C)CC1")
"> 100 µM (inactive)"
>>> testvalue("Cc1c(-c2coc(-c3ccccc3)n2)c(=O)n(-c2ccccc2)n1C")
"> 100 µM (inactive)"
>>> testvalue("CC1CCC(=O)NCCCCC(=O)N1 (stereo unspecified)")
"> 100 µM (inactive)"
>>> testvalue("C=CCNC(=S)OCCCCCCCCCC")
"19.5 µM (inactive)"

**Query** Looking for the measured GI50 of O=C(NC1CCCCCC1)C1C(=O)N(C2CCCCCC2)C(=O)/C1=N\O (stereo unspecified) , can you help?
**Result** 34.3 µM (inactive)

Data provenance is ChEMBL document CHEMBL1201862.
